System: A2780 MCTSs
Assay: (Photo-)cytotoxicity on 3D multicellular tumour spheroids, resazurin assay
Type: cell-based, human
Details: Homo sapiens, 168 h, normoxic, dark, one week of incubation, read-out: IC50 Dark
pIC50: −log10 of the molar value.
Each item that follows carries a reported pIC50.

| compound | pIC50 |
| --- | --- |
| Cc1cc(Nc2ncc(Cl)c(Nc3ccccc3S(=O)(=O)C(C)C)n2)c(OC(C)C)cc1C1CCNCC1 [Ceritinib] | < 5.30 |

Please examine the following record next.
Fill blank: measured pIC50 of the compound C=Cc1c(C)c2cc3nc(c(CC(=O)O)c4[nH]c(cc5nc(cc1[nH]2)C(C)=C5CC)c(C)c4C(=O)O)[C@@H](CCC(=O)O)[C@@H]3C [Ce6, Chlorin e6] is ____.
< 5.30

All figures here come from paper PMC12668304.
